B1: HDV Ribozyme (parent)
chain: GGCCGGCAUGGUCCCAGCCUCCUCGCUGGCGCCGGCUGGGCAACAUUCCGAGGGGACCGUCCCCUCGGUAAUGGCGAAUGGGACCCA

Variants of: B1
TEST: self-cleavage, relative activity (ratio to wild type); higher = more cleavage; co-transcriptional
Threshold rule: self-cleavage greater than or equal to 0.6 is 1; below that, 0.

Reference set (8 entries):
MUTATION KEY	ASSIGNED LABEL
G53C G82C	0
U9G G50C	1
U72C C86U	0
C14U U69A	1
C24A C49A	1
G5A C61A	0
C63A C86A	1
A8G G76C	1

Req: Quick check: does C14G G59C have self-cleavage greater than or equal to 0.6?
Resp: 1

Req: Now consider G11A G73A .
Resp: 0

Req: // query: G52C C85G
Resp: 1
